Species on record: Rattus norvegicus
MEASUREMENT DESCRIPTION: DrugMatrix - Regimen: Daily Repeat
Format: toxicity, organism-based, Sprague-Dawley
Set-up: regimen Daily Repeat, gender Male, age 6-8 weeks
APPLIED CONDITIONS: in vivo, po, 0 mg/kg, 120 h, tissue Blood, route oral GAVAGE, dose level Control, time 5 day, vehicle 100 % WATER
VALUE TYPE: MEAN CORPUSCULAR HEMOGLOBIN CONCENTRATION (G/DL)
Report only the number, with the unit G/DL understood.

# annotated cases, reported MEAN CORPUSCULAR HEMOGLOBIN CONCENTRATION shown
Nc1ccc(S(=O)(=O)Nc2ncccn2)cc1; 39.44
O=P1(N(CCCl)CCCl)NCCCO1 (stereo unspecified) [CYCLOPHOSPHAMIDE ANHYDROUS]; 39.33
Nc1ccc(S(=O)(=O)Nc2nccs2)cc1; 38.82
CC[C@H]1OC(=O)[C@H](C)[C@@H](O[C@H]2C[C@@](C)(OC)[C@@H](O)[C@H](C)O2)[C@H](C)[C@@H](O[C@@H]2O[C@H](C)C[C@H](N(C)C)[C@H]2O)[C@](C)(O)C[C@@H](C)CN(C)[C@H](C)[C@@H](O)[C@]1(C)O; 38.45
Cc1c(N(C)CS(=O)(=O)[O-])c(=O)n(-c2ccccc2)n1C.[Na+] [DIPYRONE SODIUM]; 37.8

Value lookup for MEAN CORPUSCULAR HEMOGLOBIN CONCENTRATION; key = `CCOC(N)=O` 40.08

###

Organism: Rattus norvegicus
MEASUREMENT DESCRIPTION: DrugMatrix - Regimen: Daily Repeat
Assay type: toxicity, organism-based, Sprague-Dawley
Parameters: regimen Daily Repeat, gender Male, age 6-8 weeks
APPLIED CONDITIONS: in vivo, ip, 0 mg/kg, 120 h, tissue Blood, route intraperitoneal, dose level Control, time 5 day, vehicle 100 % SALINE
VALUE TYPE: ABSOLUTE BASOPHIL

Look up ABSOLUTE BASOPHIL for this compound: NC[C@H]1O[C@H](O[C@H]2[C@H](O)[C@@H](O[C@H]3O[C@H](CO)[C@@H](O)[C@H](N)[C@H]3O)[C@H](N)C[C@@H]2N)[C@H](N)C[C@@H]1O [TOBRAMYCIN] 32 cells/µL

###

Species: Rattus norvegicus
MEASUREMENT DESCRIPTION: DrugMatrix - Regimen: Daily Repeat
Type: toxicity, organism-based, Sprague-Dawley
Design: regimen Daily Repeat, gender Male, age 6-8 weeks
APPLIED CONDITIONS: in vivo, po, 0 mg/kg, 120 h, tissue Plasma, route oral GAVAGE, dose level Control, time 5 day, vehicle .5 % CMC
This section presents compounds with their documented POTASSIUM values.

Nc1cccc(Cl)c1; 6.65 MEQ/L

# query: POTASSIUM of entry `C=C(CC)C(=O)c1ccc(OCC(=O)O)c(Cl)c1Cl` 6.18 MEQ/L

How about `C[C@@H]1CC[C@H]2[C@@H](C)C(=O)O[C@@H]3O[C@@]4(C)CC[C@@H]1[C@]32OO4` ? 6.57 MEQ/L

And `C[C@]12C/C(=C/O)C(=O)C[C@@H]1CC[C@@H]1[C@@H]2CC[C@@]2(C)[C@H]1CC[C@]2(C)O` ? 7.2 MEQ/L

Also `CCOC(=O)[C@H](CCc1ccccc1)N[C@@H](C)C(=O)N1Cc2ccccc2C[C@H]1C(=O)O` ? 5.63 MEQ/L

Also `COc1ccc(/C=C/C(=O)Nc2ccccc2C(=O)O)cc1OC` , if possible. 6.82 MEQ/L

Record: `CCCCC1C(=O)N(c2ccccc2)N(c2ccccc2)C1=O` 6.17 MEQ/L

Another compound: CC(C(=O)O)c1ccc(-c2ccccc2)c(F)c1 (stereo unspecified) 6.82 MEQ/L

Then `C[C@@H](O)[C@H]1C(=O)N2C(C(=O)O)=C(S[C@@H]3CN[C@H](C(=O)N(C)C)C3)[C@H](C)[C@H]12` ? 6.82 MEQ/L

What do you have for CC(=O)O[C@]1(C(C)=O)CC[C@H]2[C@@H]3C=C(Cl)C4=CC(=O)[C@@H]5C[C@@H]5[C@]4(C)[C@H]3CC[C@@]21C [CYPROTERONE ACETATE] ? 5.63 MEQ/L

Now give it for `CN1C(=O)CN=C(c2ccccc2)c2cc(Cl)ccc21` too. 7.08 MEQ/L

###

Species: Rattus norvegicus
MEASUREMENT DESCRIPTION: DrugMatrix - Regimen: Daily Repeat
Assay type: toxicity, organism-based, Sprague-Dawley
Set-up: regimen Daily Repeat, gender Male, age 6-8 weeks
APPLIED CONDITIONS: in vivo, po, 0 mg/kg, 120 h, tissue Plasma, route oral GAVAGE, dose level Control, time 5 day, vehicle 100 % SALINE
Reported values of POTASSIUM for individual entries
Give the number; MEQ/L is assumed, so skip it.

Which POTASSIUM reading was recorded for the compound CC(=O)OCC(CCn1cnc2cnc(N)nc21)COC(C)=O [FAMCICLOVIR] ? 5.5

###

Organism: Rattus norvegicus
MEASUREMENT DESCRIPTION: DrugMatrix - Regimen: Daily Repeat
Format: toxicity, organism-based, Sprague-Dawley
Design: regimen Daily Repeat, gender Male, age 6-8 weeks
APPLIED CONDITIONS: in vivo, po, 0 mg/kg, 72 h, tissue Plasma, route oral GAVAGE, dose level Control, time 3 day, vehicle 100 % WATER
VALUE TYPE: TOTAL BILIRUBIN (mg/dL)
Respond numerically; units are mg/dL and should not be typed.

See these solved cases before continuing.
Nc1ccc(S(=O)(=O)Nc2nccs2)cc1; 0.2
CC(C)(C)NC[C@H](O)COc1nsnc1N1CCOCC1; 0.2
OCCO; 0.18

Which measured TOTAL BILIRUBIN value corresponds to `CCOC(N)=O` ? 0.22

###

A collection of compounds and their measured URIC ACID
Species: Rattus norvegicus
MEASUREMENT DESCRIPTION: DrugMatrix - Regimen: Daily Repeat
Type: toxicity, organism-based, Sprague-Dawley
Design: regimen Daily Repeat, gender Male, age 6-8 weeks
APPLIED CONDITIONS: in vivo, po, 1500 mg/kg, 72 h, tissue Plasma, route oral GAVAGE, dose level High, time 3 day, vehicle .5 % CMC
Give the value, in units of mg/dL, as a plain number.

CC(C)(Sc1cc(C(C)(C)C)c(O)c(C(C)(C)C)c1)Sc1cc(C(C)(C)C)c(O)c(C(C)(C)C)c1; 1.67

Which measured URIC ACID value corresponds to Nc1nc2c(c(=O)[nH]1)N(C=O)C(CNc1ccc(C(=O)N[C@@H](CCC(=O)O)C(=O)O)cc1)CN2 (some centres undefined) ? 1.83

Continue with `C[C@@H](O)[C@H]1C(=O)N2C(C(=O)O)=C(S[C@@H]3CN[C@H](C(=O)N(C)C)C3)[C@H](C)[C@H]12` 1.9

Also, `CCOC(=O)[C@H](CCc1ccccc1)N[C@@H](C)C(=O)N1CCC[C@H]1C(=O)O` please. 1.53

###

Species on record: Rattus norvegicus
MEASUREMENT DESCRIPTION: DrugMatrix - Regimen: Daily Repeat
Format: toxicity, organism-based, Sprague-Dawley
Parameters: regimen Daily Repeat, gender Male, age 6-8 weeks
APPLIED CONDITIONS: in vivo, po, 0 mg/kg, 72 h, tissue Blood, route oral GAVAGE, dose level Control, time 3 day, vehicle 100 % WATER
VALUE TYPE: ABSOLUTE LYMPHOCYTE (CELLS/uL)
Record the value in CELLS/uL, omitting the unit from your answer.

CCN(CC)CC#CCOC(=O)C(O)(c1ccccc1)C1CCCCC1 (stereo not given); 13105
CCOC(N)=O; 12677.83
CNS(=O)(=O)Cc1ccc2[nH]cc(CCN(C)C)c2c1; 12090.17
OCCO; 7802.17

Let us move to another entry and its ABSOLUTE LYMPHOCYTE.
Need ABSOLUTE LYMPHOCYTE, item `CC[C@H]1OC(=O)[C@H](C)[C@@H](O[C@H]2C[C@@](C)(OC)[C@@H](O)[C@H](C)O2)[C@H](C)[C@@H](O[C@@H]2O[C@H](C)C[C@H](N(C)C)[C@H]2O)[C@](C)(OC)C[C@@H](C)C(=O)[C@H](C)[C@@H](O)[C@]1(C)O` 14108.83

###

Species: Rattus norvegicus
MEASUREMENT DESCRIPTION: DrugMatrix - Regimen: Daily Repeat
Type: toxicity, organism-based, Sprague-Dawley
Parameters: regimen Daily Repeat, gender Male, age 6-8 weeks
APPLIED CONDITIONS: in vivo, po, 0 mg/kg, 120 h, tissue Blood, route oral GAVAGE, dose level Control, time 5 day, vehicle .5 % CMC
As shown below, each of these molecules has a reported ABSOLUTE LYMPHOCYTE value.
Just the number in CELLS/uL, nothing appended.

The examples below pair each entry with its known result.
C[C@@H]1CC[C@H]2[C@@H](C)C(=O)O[C@@H]3O[C@@]4(C)CC[C@@H]1[C@]32OO4; 13632.83
CCOC(=O)[C@H](CCc1ccccc1)N[C@@H](C)C(=O)N1Cc2ccccc2C[C@H]1C(=O)O; 13283.17
C[C@@H](O)[C@H]1C(=O)N2C(C(=O)O)=C(S[C@@H]3CN[C@H](C(=O)N(C)C)C3)[C@H](C)[C@H]12; 16020.5
COc1ccc(/C=C/C(=O)Nc2ccccc2C(=O)O)cc1OC; 16020.5
CN1C(=O)CN=C(c2ccccc2)c2cc(Cl)ccc21; 14943.67
CC(C(=O)O)c1ccc(-c2ccccc2)c(F)c1 (centres undefined); 16020.5
CC(C)(Sc1cc(C(C)(C)C)c(O)c(C(C)(C)C)c1)Sc1cc(C(C)(C)C)c(O)c(C(C)(C)C)c1; 16020.5
CO[C@H]1C[C@@H]2CC[C@@H](C)[C@@](O)(O2)C(=O)C(=O)N2CCCC[C@H]2C(=O)O[C@H]([C@H](C)C[C@@H]2CC[C@@H](O)[C@H](OC)C2)CC(=O)[C@H](C)/C=C(\C)[C@@H](O)[C@@H](OC)C(=O)[C@H](C)C[C@H](C)/C=C/C=C/C=C/1C; 14327.83
COc1ccccc1OCC(O)COC(N)=O (centres undefined); 13632.83
Cc1cnc(C(=O)NCCc2ccc(S(=O)(=O)NC(=O)NC3CCCCC3)cc2)cn1 [GLIPIZIDE]; 13283.17

Name the reported ABSOLUTE LYMPHOCYTE value associated with the molecule `CCCCC1C(=O)N(c2ccccc2)N(c2ccccc2)C1=O` 11419.17

Let us now turn to CC(=O)O[C@]1(C(C)=O)CC[C@H]2[C@@H]3C=C(Cl)C4=CC(=O)[C@@H]5C[C@@H]5[C@]4(C)[C@H]3CC[C@@]21C [CYPROTERONE ACETATE] 13283.17
